Tested on: UO-31
Test: minimum viability across doses, drug alone, relative to DMSO (fraction); higher = less growth inhibition
Settings: treatment: drug alone; 5 days
Records here are stratified by minimum viability across doses; strata: zone 1 (below 0.05), zone 2 (0.05 to below 0.6), zone 3 (0.6 or more)

{"molecule": "O=C1NC(=O)/C(=C/c2ccc(-c3ccc(F)cc3O)o2)S1", "test system": "UO-31", "qualitative label": "zone 2"}
{"molecule": "CC(C)CC(=O)Nc1n[nH]c2c1CN(C(=O)C1CCN(C)CC1)C2(C)C", "test system": "UO-31", "qualitative label": "zone 1"}
{"molecule": "COC1=CC(c2cc3ccccc3[nH]2)=N/C1=C\\c1[nH]c(C)cc1C.CS(=O)(=O)O [Obatoclax mesylate (GX15-070)]", "test system": "UO-31", "qualitative label": "zone 1"}
{"molecule": "Cc1ccc(-n2nc(C(C)(C)C)cc2NC(=O)Nc2ccc(OCCN3CCOCC3)c3ccccc23)cc1", "test system": "UO-31", "qualitative label": "zone 3"}
{"molecule": "C#Cc1cccc(Nc2ncnc3cc(OCCOC)c(OCCO)cc23)c1", "test system": "UO-31", "qualitative label": "zone 3"}
{"molecule": "C[C@@H](Oc1cc(-n2cnc3ccc(CN4CCN(C)CC4)cc32)sc1C(N)=O)c1ccccc1C(F)(F)F", "test system": "UO-31", "qualitative label": "zone 1"}

(Q) Could you tell me which band COc1cc(Nc2ncc(F)c(Nc3ccc4c(n3)NC(=O)C(C)(C)O4)n2)cc(OC)c1OC [R406(free base)] belongs to?
(A) zone 1

(Q) Again, but for `C[C@@H]1CCN(C(=O)CC#N)C[C@@H]1N(C)c1ncnc2[nH]ccc12`
(A) zone 3

(Q) Again, but for COc1cc2c(Nc3ccc(Br)cc3F)ncnc2cc1OCC1CCN(C)CC1 [Vandetanib (Zactima)]
(A) zone 2

(Q) Again, but for CO[C@H]1C[C@@H]2CC[C@@H](C)[C@@](O)(O2)C(=O)C(=O)N2CCCC[C@H]2C(=O)O[C@H]([C@H](C)C[C@@H]2CC[C@@H](OCCO)[C@H](OC)C2)CC(=O)[C@H](C)/C=C(\C)[C@@H](O)[C@@H](OC)C(=O)[C@H](C)C[C@H](C)/C=C/C=C/C=C/1C [Everolimus (RAD001)]
(A) zone 2

(Q) Again, but for `NCC(=O)Nc1ccc(-n2nc(C(F)(F)F)cc2-c2ccc3c(ccc4ccccc43)c2)cc1`
(A) zone 1

(Q) Again, but for `Cc1cc2c(F)c(Oc3ncnn4cc(OC[C@@H](C)OC(=O)[C@H](C)N)c(C)c34)ccc2[nH]1`
(A) zone 2

(Q) Again, but for `Cn1cc(C2=C(c3ccc(Cl)cc3Cl)C(=O)NC2=O)c2ccccc21`
(A) zone 3

(Q) Again, but for `Clc1ccc(C2(c3ccc(-c4cn[nH]c4)cc3)CCNCC2)cc1`
(A) zone 1

(Q) Again, but for `Cc1nc(NC(=O)N2CCC[C@H]2C(N)=O)sc1-c1ccnc(C(C)(C)C(F)(F)F)c1`
(A) zone 3

###

Test system: 786-O
Assay: minimum viability across doses, drug + dasatinib, relative to DMSO (fraction); higher = less growth inhibition
Conditions: treatment: drug + dasatinib (fixed dose, not stated); 5 days
result type: minimum viability across doses
Just the number, please.

{"compound": "Cl.Cl.Clc1ccc(Nc2nnc(Cc3ccncc3)c3ccccc23)cc1 [Vatalanib dihydrochloride (PTK787)] + Cc1nc(Nc2ncc(C(=O)Nc3c(C)cccc3Cl)s2)cc(N2CCN(CCO)CC2)n1", "result type": "minimum viability across doses", "assay value": 0.549}

Now take the following compound into account.
(Q) So what does the record say about minimum viability across doses for COc1cc(Nc2ncc(F)c(Nc3ccc4c(n3)N(COP(=O)(O)O)C(=O)C(C)(C)O4)n2)cc(OC)c1OC [R788 (Fostamatinib)] + Cc1nc(Nc2ncc(C(=O)Nc3c(C)cccc3Cl)s2)cc(N2CCN(CCO)CC2)n1 ?
(A) 0.199

###

The following compounds are listed with their measured GI50, drug alone values.
System: UO-31
Experiment: GI50, drug alone; higher = less potent
Conditions: treatment: drug alone; 5 days
Your answer should be a plain number; it is taken to be in nM.

Check out these entries, answers already filled in.
{"entry smiles": "NC(=O)Nc1cc(-c2cccc(F)c2)sc1C(=O)N[C@H]1CCCNC1", "test system": "UO-31", "unit text": "nM", "GI50, drug alone": 81.8}
{"entry smiles": "COc1cc(CCc2cc(NC(=O)c3ccc(N4C[C@@H](C)N[C@@H](C)C4)cc3)n[nH]2)cc(OC)c1", "test system": "UO-31", "unit text": "nM", "GI50, drug alone": 9970}
{"entry smiles": "Cn1c(=O)n(-c2ccc(C(C)(C)C#N)cc2)c2c3cc(-c4cnc5ccccc5c4)ccc3ncc21", "test system": "UO-31", "unit text": "nM", "GI50, drug alone": 152}

Now take the following compound into account.
(Q) Query for UO-31: what GI50, drug alone does the record show for `CC(C)(C)c1cnc(CSc2cnc(NC(=O)C3CCNCC3)s2)o1` ?
(A) 269

###

Test system: TK-10
Assay: GI50 of drug in presence of dasatinib; higher = less potent
Details: treatment: drug + dasatinib (fixed dose, not stated); 5 days
result type: GI50 of drug (nM)
Your answer should be a plain number; it is taken to be in nM.

{"molecule": "CN1CCN(c2ccc3nc(-c4c(N)c5c(F)cccc5[nH]c4=O)[nH]c3c2)CC1 [Dovitinib (TKI-258)] + Cc1nc(Nc2ncc(C(=O)Nc3c(C)cccc3Cl)s2)cc(N2CCN(CCO)CC2)n1", "test system": "TK-10", "assay value": 1890}

(Q) So what does the record say about GI50 of drug for O=C1NCCc2[nH]c(-c3ccncc3)cc21 + Cc1nc(Nc2ncc(C(=O)Nc3c(C)cccc3Cl)s2)cc(N2CCN(CCO)CC2)n1 ?
(A) 2040

(Q) Again, but for Cc1n[nH]c2ccc(-c3cncc(OC[C@@H](N)Cc4ccccc4)c3)cc12 + Cc1nc(Nc2ncc(C(=O)Nc3c(C)cccc3Cl)s2)cc(N2CCN(CCO)CC2)n1
(A) 1130

(Q) Again, but for Cc1cc(C(=O)NOCCO)c(Nc2ccc(I)cc2F)n(C)c1=O [AZD8330] + Cc1nc(Nc2ncc(C(=O)Nc3c(C)cccc3Cl)s2)cc(N2CCN(CCO)CC2)n1
(A) 108

(Q) Again, but for CC(C)NC[C@@H](C(=O)N1CCN(c2ncnc3c2[C@H](C)C[C@H]3O)CC1)c1ccc(Cl)cc1 [GDC-0068] + Cc1nc(Nc2ncc(C(=O)Nc3c(C)cccc3Cl)s2)cc(N2CCN(CCO)CC2)n1
(A) 1190

(Q) Again, but for CN1CCN(C2CCN(C(=O)Nc3cc(Oc4ccc(NC(=O)C5(C(=O)Nc6ccc(F)cc6)CC5)c(F)c4)ccn3)CC2)CC1 [Golvatinib (E7050)] + Cc1nc(Nc2ncc(C(=O)Nc3c(C)cccc3Cl)s2)cc(N2CCN(CCO)CC2)n1
(A) 886

(Q) Again, but for CN1CCN(c2cccc(Nc3nc4c(-c5ccc(S(C)(=O)=O)cc5)cccn4n3)c2)CC1 + Cc1nc(Nc2ncc(C(=O)Nc3c(C)cccc3Cl)s2)cc(N2CCN(CCO)CC2)n1
(A) 1250

###

Tested on: 786-O
Test: minimum viability across doses, drug alone, relative to DMSO (fraction); higher = less growth inhibition
Conditions: treatment: drug alone; 5 days
result type: minimum viability across doses
Just the number, please.

Check out these entries, answers already filled in.
{"compound": "Cn1cc(C2=C(c3cn(C4CCN(Cc5ccccn5)CC4)c4ccccc34)C(=O)NC2=O)c2ccccc21", "minimum viability across doses": 0.805}
{"compound": "O=c1[nH]c2ccc(Cl)cc2c(N[C@@H]2CN3CCC2CC3)c1-c1nc2ccccc2[nH]1 [CHIR-124]", "minimum viability across doses": 0.0053}
{"compound": "Clc1ccc(C2(c3ccc(-c4cn[nH]c4)cc3)CCNCC2)cc1 [AT7867]", "minimum viability across doses": 0.00712}
{"compound": "Cc1ccc(NC(=O)c2ccc(CN3CCN(C)CC3)cc2)cc1Nc1nc(-c2cccnc2)cs1 [Masitinib (AB1010)]", "minimum viability across doses": 0.168}
{"compound": "Cn1cnc(-c2cc3nccc(Oc4ccc(NC(=S)NC(=O)Cc5ccccc5)cc4F)c3s2)c1 [MGCD-265]", "minimum viability across doses": 0.785}
{"compound": "Oc1cc(O)cc(/C=C/c2ccc(O)c(O)c2)c1 [Piceatannol]", "minimum viability across doses": 0.383}
{"compound": "Cc1ccc(S(=O)(=O)Nc2nc3ccccc3nc2Nc2ccc3nsnc3c2)cc1 [XL147]", "minimum viability across doses": 0.768}
{"compound": "Cn1c(=O)c(F)c(Nc2ccc(I)cc2F)c2c(=O)n(C[C@@H](O)CO)cnc21 [TAK-733]", "minimum viability across doses": 0.396}

(Q) So what does the record say about minimum viability across doses for Cc1nc(NC(=O)N2CCC[C@H]2C(N)=O)sc1-c1ccnc(C(C)(C)C(F)(F)F)c1 [BYL719] ?
(A) 0.155

(Q) Again, but for Cn1cc(-c2ccc3nnc(Sc4ccc5ncccc5c4)n3n2)cn1 [SGX-523]
(A) 0.56

(Q) Again, but for CNC(=O)c1ccccc1Nc1nc(Nc2ccc(N3CCOCC3)cc2OC)ncc1Cl [NVP-TAE226]
(A) 0.00915

(Q) Again, but for Cn1cnc(N)c2ncnc1-2 [3-Methyladenine]
(A) 0.618

(Q) Again, but for COC(=O)c1ccc2c(c1)NC(=O)/C2=C(\Nc1ccc(N(C)C(=O)CN2CCN(C)CC2)cc1)c1ccccc1 [BIBF1120 (Vargatef)]
(A) 0.782

(Q) Again, but for CCS(=O)(=O)Nc1ccc2c(c1)/C(=C(/Nc1ccc(CN3CCCCC3)cc1)c1ccccc1)C(=O)N2 [Hesperadin]
(A) 0.0109

(Q) Again, but for Cc1cc(Nc2nc(N[C@@H](C)c3ccc(F)cc3)c(C#N)cc2F)n[nH]1 [AZ 960]
(A) 0.00178
